Cited source for all entries: paper PMC6522510

# System: CMK
# Design: species or system AML cell lines (8); Primary HTS, single concentration about 10 uM, Cell Titer Glo viability; log10 luminescence, per cent inhibition relative to cycloheximide control
# settings: 72 h, relative to cycloheximide control, log10 luminescence; inhibitor
In this section, each of the compounds is paired with its reported CMK %inh.
The response must be a number in % with no trailing unit.

Example cases with answers are listed next.
| compound | unit.of.measurement | CMK %inh |
| --- | --- | --- |
| CC(=O)Nc1cccc(C#Cc2cncnc2Nc2ccc(OCc3cccc(F)c3)c(Cl)c2)n1 | % | 2.98 |
| O=C(Nc1ccc(Oc2ccc3[nH]c(NC(=O)c4ccccc4)nc3c2)cc1)Nc1cc(C(F)(F)F)ccc1F | % | 59.46 |
| NC(=O)c1ccc(Oc2nccc(-c3c(-c4ccc(F)cc4)ncn3C3CCNCC3)n2)cc1 | % | 7.904 |
| O=C1NC(=N[C@@H](CO)c2ccccc2)S/C1=C\c1ccc2ncccc2c1 | % | 55.48 |
| CCOCCn1c(N2CCCN(C)CC2)nc2ccccc21 [SJ000556751-1, EMEDASTINE DIFUMARATE] | % | -0.9686 |
| Cn1c(=O)c(Oc2ccc(F)cc2)cc2cnc(NC3CCOCC3)nc21 | % | 4.681 |

Give its CMK %inh value. Item: CC(C)=CCC/C(C)=C/CC/C(C)=C/CC/C(C)=C/CO
-0.4924

Need CMK %inh of COc1ccc2cc1Oc1cc3c(cc1OC)CC[N+](C)(C)[C@H]3Cc1ccc(cc1)Oc1c(OC)c(OC)cc3c1[C@@H](C2)[N+](C)(C)CC3 [SJ000565179-1, METOCURINE IODIDE] , thanks.
-2.411
